test: PK, distribution and excretion in rat; type: in vivo; settings: rat, in vivo, po, elimination half-life in brain
measurement_label: half-life (h)

1. c1ccc2cc([C@H]([C@H]3CCCNC3)n3ncnn3)ccc2c1 12.6

---

assay: PK, distribution and excretion in rat; assay type: in vivo; settings: rat, in vivo, po, elimination half-life in plasma

compound	half-life
c1ccc2cc([C@H]([C@H]3CCCNC3)n3ncnn3)ccc2c1 [Example Compound 2]	5 h

---

experiment: Teratogenicity study (segment II) in rats; details: rat, in vivo, read-out: NOAEL fetal viability
measurement_label: NOAEL (mg/kg/day)

1. c1ccc2cc([C@H]([C@H]3CCCNC3)n3ncnn3)ccc2c1 90

---

biological target: UniProtKB Q63380; experiment: Monoamine uptake into rat synaptosomes, norepinephrine
Sequence (Q63380 1-617): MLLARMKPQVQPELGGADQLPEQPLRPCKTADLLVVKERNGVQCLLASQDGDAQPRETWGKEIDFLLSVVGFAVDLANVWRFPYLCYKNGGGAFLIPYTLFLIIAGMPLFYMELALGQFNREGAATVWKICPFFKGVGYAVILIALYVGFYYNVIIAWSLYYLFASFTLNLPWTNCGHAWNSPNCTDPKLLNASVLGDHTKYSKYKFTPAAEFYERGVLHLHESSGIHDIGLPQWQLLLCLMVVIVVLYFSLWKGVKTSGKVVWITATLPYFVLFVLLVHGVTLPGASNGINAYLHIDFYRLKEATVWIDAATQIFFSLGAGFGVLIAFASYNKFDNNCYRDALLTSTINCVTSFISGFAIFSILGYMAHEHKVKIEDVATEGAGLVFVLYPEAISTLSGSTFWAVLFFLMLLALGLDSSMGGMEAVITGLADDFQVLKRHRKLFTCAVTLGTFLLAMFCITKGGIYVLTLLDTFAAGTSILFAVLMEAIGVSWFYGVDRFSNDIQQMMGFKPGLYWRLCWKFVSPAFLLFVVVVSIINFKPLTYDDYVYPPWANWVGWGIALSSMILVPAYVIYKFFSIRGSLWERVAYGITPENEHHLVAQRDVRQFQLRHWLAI

molecule	IC50
c1ccc2cc([C@H]([C@H]3CCCNC3)n3ncnn3)ccc2c1 [Example Compound 2]	65 nM

---

assay: Multiple ascending dose study in healthy volunteers; format: in vivo, human; conditions: human, plasma, daily doses up to 11 days, for most doses, read-out: elimination half-life during chronic treatment (converted)
measurement_label: half-life

compound	result
c1ccc2cc([C@H]([C@H]3CCCNC3)n3ncnn3)ccc2c1 [Example Compound 2]	~6 h

---

Target: recombinant human serotonin transporter protein (SERT) (Homo sapiens, UniProt P31645)
Sequence (P31645 whole entry): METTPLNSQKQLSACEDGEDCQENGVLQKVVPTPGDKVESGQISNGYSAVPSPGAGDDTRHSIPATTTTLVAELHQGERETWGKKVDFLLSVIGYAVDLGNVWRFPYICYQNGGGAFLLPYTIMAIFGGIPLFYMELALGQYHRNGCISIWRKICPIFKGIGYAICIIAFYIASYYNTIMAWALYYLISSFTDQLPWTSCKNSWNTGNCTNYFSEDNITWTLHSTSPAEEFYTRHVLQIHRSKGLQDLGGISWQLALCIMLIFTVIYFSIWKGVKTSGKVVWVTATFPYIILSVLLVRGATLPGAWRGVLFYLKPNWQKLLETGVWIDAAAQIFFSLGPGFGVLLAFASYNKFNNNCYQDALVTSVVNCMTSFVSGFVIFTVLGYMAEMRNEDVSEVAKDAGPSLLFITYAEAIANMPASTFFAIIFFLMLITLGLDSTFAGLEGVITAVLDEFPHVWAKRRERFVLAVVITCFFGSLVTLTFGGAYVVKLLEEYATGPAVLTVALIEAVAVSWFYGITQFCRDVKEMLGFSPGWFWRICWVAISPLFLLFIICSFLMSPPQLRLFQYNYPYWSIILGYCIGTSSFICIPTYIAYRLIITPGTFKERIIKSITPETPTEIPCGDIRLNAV
Test: IC50 binding profile, competitive inhibition assay, SERT
Text: Amitifadine and DOV 102,677 are enantiomers and differ only in the stereochemistry of the cyclopropyl pyrrolidine carbon to which the dichlorophenyl group is bonded. In addition to the structural differences, the compounds differ greatly in their IC50 binding profiles at the three corresponding monoamine transporter proteins. […]
pIC50: −log10 of the molar value.
measurement_label: pIC50

1. c1ccc2cc([C@H]([C@H]3CCCNC3)n3ncnn3)ccc2c1 7.70

---

target: UniProtKB P31652; test: Monoamine uptake into rat synaptosomes, serotonin
Sequence (P31652 whole entry): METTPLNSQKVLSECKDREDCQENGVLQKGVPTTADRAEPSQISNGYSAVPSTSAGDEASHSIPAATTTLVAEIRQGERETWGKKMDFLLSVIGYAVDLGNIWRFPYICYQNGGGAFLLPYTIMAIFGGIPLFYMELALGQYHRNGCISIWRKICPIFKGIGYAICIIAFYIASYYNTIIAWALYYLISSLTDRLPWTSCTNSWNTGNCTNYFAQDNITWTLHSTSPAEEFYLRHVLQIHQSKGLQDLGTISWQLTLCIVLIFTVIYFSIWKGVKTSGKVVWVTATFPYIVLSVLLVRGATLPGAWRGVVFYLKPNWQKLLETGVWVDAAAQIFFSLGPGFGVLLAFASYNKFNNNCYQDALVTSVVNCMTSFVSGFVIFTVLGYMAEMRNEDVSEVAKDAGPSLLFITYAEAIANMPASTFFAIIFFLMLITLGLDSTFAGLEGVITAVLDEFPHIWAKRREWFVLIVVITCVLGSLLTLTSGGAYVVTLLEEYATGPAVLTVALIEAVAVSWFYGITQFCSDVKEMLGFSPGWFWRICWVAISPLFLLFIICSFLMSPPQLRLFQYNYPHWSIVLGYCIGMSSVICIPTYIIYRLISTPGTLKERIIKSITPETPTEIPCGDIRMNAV
pIC50: −log10 of the molar value.
measurement_label: pIC50

1. c1ccc2cc([C@H]([C@H]3CCCNC3)n3ncnn3)ccc2c1 7.43

---

test: Teratogenicity study (segment II) in rats; conditions: rat, in vivo, read-out: NOAEL maternal toxicity
measurement_label: NOAEL (mg/kg/day)

compound	measure_unit	measured_number
c1ccc2cc([C@H]([C@H]3CCCNC3)n3ncnn3)ccc2c1 [Example Compound 2]	mg/kg/day	30

---

assay: Chronic (13 week) toxicity testing in dogs; settings: dog, in vivo, read-out: no adverse effects level (NOAEL)
measurement_label: NOAEL at 13 week (mg/kg)

1) c1ccc2cc([C@H]([C@H]3CCCNC3)n3ncnn3)ccc2c1 6

---

assay: Teratogenicity study (segment II) in rats; conditions: rat, in vivo, read-out: NOAEL fetal growth

molecule	NOAEL, mg/kg/day
c1ccc2cc([C@H]([C@H]3CCCNC3)n3ncnn3)ccc2c1 [Example Compound 2]	30

---

assay: Human pharmacokinetic studies; conditions: in vivo, read-out: elimination half-life (converted)
measurement_label: half-life

compound	result
c1ccc2cc([C@H]([C@H]3CCCNC3)n3ncnn3)ccc2c1 [Example Compound 2]	~7 h

---

experiment: PK parameters in dog; details: in vivo
measurement_label: half-life (h)

1) c1ccc2cc([C@H]([C@H]3CCCNC3)n3ncnn3)ccc2c1 2

---

experiment: PK parameters in mouse; conditions: in vivo
measurement_label: half-life

1) c1ccc2cc([C@H]([C@H]3CCCNC3)n3ncnn3)ccc2c1 1.9 h

---

experiment: PK, distribution and excretion in rat; format: in vivo; details: rat, in vivo, T1/2
measurement_label: half-life (h)

1. c1ccc2cc([C@H]([C@H]3CCCNC3)n3ncnn3)ccc2c1 3.7

---

assay: Teratogenicity study (segment II) in rats; conditions: rat, in vivo, read-out: NOAEL fetal development
measurement_label: NOAEL

1) c1ccc2cc([C@H]([C@H]3CCCNC3)n3ncnn3)ccc2c1 90 mg/kg/day

---

assay: PK parameters in dog; conditions: in vivo, po, dogs
measurement_label: bioavailability (%)

1) c1ccc2cc([C@H]([C@H]3CCCNC3)n3ncnn3)ccc2c1 45

Reference source for all entries: patent US9637470B2
